Target: T1, AMHRII receptor expressed on cells (cov434-AMHRII, Asc 1, META 2815) (human, UniProt Q16671 18-573)
T1 sequence (looked up): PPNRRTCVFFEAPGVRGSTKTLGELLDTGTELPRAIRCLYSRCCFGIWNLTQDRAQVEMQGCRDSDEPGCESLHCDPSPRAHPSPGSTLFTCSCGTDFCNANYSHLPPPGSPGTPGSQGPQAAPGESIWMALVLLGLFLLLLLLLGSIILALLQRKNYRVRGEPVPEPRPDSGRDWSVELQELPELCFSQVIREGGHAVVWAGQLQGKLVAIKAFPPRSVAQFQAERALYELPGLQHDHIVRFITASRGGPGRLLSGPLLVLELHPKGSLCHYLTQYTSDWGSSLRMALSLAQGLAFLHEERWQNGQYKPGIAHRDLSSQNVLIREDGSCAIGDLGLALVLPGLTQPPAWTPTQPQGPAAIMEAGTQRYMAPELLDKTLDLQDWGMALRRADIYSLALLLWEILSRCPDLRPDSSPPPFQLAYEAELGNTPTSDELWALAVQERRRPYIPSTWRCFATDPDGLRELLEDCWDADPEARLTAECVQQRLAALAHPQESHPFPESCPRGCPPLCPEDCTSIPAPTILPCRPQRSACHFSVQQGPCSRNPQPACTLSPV
Experiment: cell-based or functional assay
REPORTED_ENDPOINT: % of lysis of ASC1 cells (ADCC with NK cells, LDH release) at 0.5 ng/ml antibody (%)
Numbers only; they are read as %.

In: Report measured % of lysis of ASC1 cells (ADCC with NK cells, LDH release) at 0.5 ng/ml antibody; entry is mutated humanized 12G4 antibody 3C-23 produced in YB2/0 (antibody, human IgG1, kappa, V domains shown, Chains without leader; Mutations VH-Q3R, VL-I177T/S179P; also called 3C_23 YB2/0; R901 3C23) VH: QVRLVQSGAEVKKPGASVKVSCKASGYTFTSYHIHWVRQAPGQRLEWMGWIYPGDDSTKYSQKFQGRVTITRDTSASTAYMELSSLRSEDTAVYYCTRGDRFAYWGQGTLVTVSS VL: DIQMTQSPSTLSASVGDRVTITCRASSSVRYIAWYQQKPGKAPKLLTYPTSSLESGVPSRFSGSGSGTEFTLTISSLQPDDFATYYCLQWSSYPWTFGGGTKVEIKR
Out: 13

In: Report measured % of lysis of ASC1 cells (ADCC with NK cells, LDH release) at 0.5 ng/ml antibody; entry is unmutated humanized 12G4 monoclonal antibody (antibody, human IgG1, kappa, V domains shown, Variable regions without leader joined to the constant regions; also called huLFB112; 632 07 107 Anti AMHRII hum 1st) VH: QVQLVQSGAEVKKPGASVKVSCKASGYTFTSYHIHWVRQAPGQRLEWMGWIYPGDDSTKYSQKFQGRVTITRDTSASTAYMELSSLRSEDTAVYYCTRGDRFAYWGQGTLVTVSS VL: DIQMTQSPSTLSASVGDRVTITCRASSSVRYIAWYQQKPGKAPKLLIYSTSSLESGVPSRFSGSGSGTEFTLTISSLQPDDFATYYCLQWSSYPWTFGGGTKVEIKR
Out: 0

In: Report measured % of lysis of ASC1 cells (ADCC with NK cells, LDH release) at 0.5 ng/ml antibody; entry is mutated humanized 12G4 antibody 3C-23K produced in YB2/0 (antibody, human IgG1, kappa, V domains shown, Chains without leader; also called 3C_23K YB2/0; 3C-23K-YB2/0) VH: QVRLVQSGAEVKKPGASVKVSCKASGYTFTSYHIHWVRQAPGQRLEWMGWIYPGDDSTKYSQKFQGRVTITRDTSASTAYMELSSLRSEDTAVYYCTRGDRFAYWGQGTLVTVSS VL: DIQMTQSPSTLSASVGDRVTITCRASSSVRYIAWYQQKPGKAPKLLTYPTSSLKSGVPSRFSGSGSGTEFTLTISSLQPDDFATYYCLQWSSYPWTFGGGTKVEIKR
Out: 26

In: Report measured % of lysis of ASC1 cells (ADCC with NK cells, LDH release) at 0.5 ng/ml antibody; entry is mutated humanized 12G4 antibody 6B-78 produced in YB2/0 (antibody, human IgG1, kappa, V domains shown, Chains without leader; Mutation VL-E184K; also called 6B_78 YB2/0; R901 6B78) VH: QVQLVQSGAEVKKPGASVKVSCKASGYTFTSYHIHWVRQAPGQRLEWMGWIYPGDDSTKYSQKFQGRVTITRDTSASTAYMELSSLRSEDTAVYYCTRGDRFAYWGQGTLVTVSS VL: DIQMTQSPSTLSASVGDRVTITCRASSSVRYIAWYQQKPGKAPKLLIYSTSSLKSGVPSRFSGSGSGTEFTLTISSLQPDDFATYYCLQWSSYPWTFGGGTKVEIKR
Out: 3
